Test system: LOX IMVI melanoma
Experiment: NCI-60 one-dose screen, 48 h (100 = growth as untreated, 0 = no growth, -100 = all killed)
Conditions: 10 µM
This is part of a sample that, as a whole, favours compounds with a hit. Of some 83,000 tested, about 20% had one in any assay.
Just so you know, the groups by growth go like this: lo = under 50%, mid = from 50% up to 90%, hi = 90% and over

Reference set (4 entries):
molecule	qualitativeLabel
CCNC(=S)NN	hi
COCCOC(=O)NC(=O)Nc1ccc(C(=O)c2ccc(Cl)cc2)cc1	lo
Cc1cc(C)c2nc(C)c(C)[n+]([O-])c2c1	hi
COc1ccc(C2C=C(c3ccc(OC)c(OC)c3)N=C3SC=CN32)c(Br)c1 (centres undefined)	lo

Let's switch to this molecule now.
For this molecule, which bin applies? O=C(O)c1cc(C(F)(F)F)cc(C(F)(F)F)c1
hi
